- measured_on: T1, Glutathione S-transferase (GST)-tagged AITR (human, UniProt Q9Y5U5 26-139)
- T1 construct: also called GST-AITR antigen; GST-AITR analyte; not shown: Glutathione S-transferase (GST) tag
- T1 sequence (looked up): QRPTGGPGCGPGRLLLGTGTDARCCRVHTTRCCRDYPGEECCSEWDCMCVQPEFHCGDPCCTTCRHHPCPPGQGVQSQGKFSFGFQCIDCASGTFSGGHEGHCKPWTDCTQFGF
- experiment_notes: SPR, Fab against the AITR antigen
I'd appreciate it if you could supply Kd values for the items below.
Please reply with the bare figure in nM and do not write the unit itself.

Query: Which Kd is listed for IRTCA-A1 (Clone L1E9) Fab (Fab, V domains shown) VH: QVQLVQSGTQVKMPGASVKVSCKASGYTFDDYGIGWVRQAPGQGLEWMGWISPYTHRTNSSPKLQDRVTMTTDTSTSTAYMELRSLRSDDTAVYYCARDGTYYDFWSGYFDNGAFDIWGQGTLVTVSS VL: QSVVTQPPSVSAAPGQKVTISCSGSTSNIGNNYVSWYQQLPGTAPKLLIYDNYKRPSGIPDRFSGSKSGTSATLGITGLRTGDEADYFCGSWESGSNAYKFGGGTKLTVL ?
Reply: 13.9

Query: Request the reported Kd associated with IRTCA-A14 (Clone H2F8) Fab (Fab, V domains shown) VH: QVQLVQSGTQVKMPGASVKVSCKASGYTFDDYGIGWVRQAPGQGLEWMGWISPYTHRTNSSPKLQDRVTMTTDTSTSTAYMELRSLRSDDTAVYYCARDGTYYDFWSGYFDTAAFDIWGQGTLVTVSS VL: QSVVTQPPSVSAAPGQKVTISCSGSTSNIGNNYVSWYQQLPGTAPKLLIYDNYKRPSGIPDRFSGSKSGTSATLGITGLRTGDEADYFCGTWDSSLNAWVFGGGTKLTVL
Reply: 3.79

Query: What value of Kd has been recorded for this entry: IRTCA-A15 (Clone H1F1) Fab (Fab, V domains shown) VH: QVQLVQSGTQVKMPGASVKVSCKASGYTFDDYGIGWVRQAPGQGLEWMGWISPYTHRTNSSPKLQDRVTMTTDTSTSTAYMELRSLRSDDTAVYYCARDGTYYDFWSGYFDNNAFDIWGQGTLVTVSS VL: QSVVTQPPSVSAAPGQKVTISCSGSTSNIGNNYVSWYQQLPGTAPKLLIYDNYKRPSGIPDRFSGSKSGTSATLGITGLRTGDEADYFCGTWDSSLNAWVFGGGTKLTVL
Reply: 2.57
